Test: amyloid nucleation score (Sup35N fusion, yeast selection) (log enrichment); library NNK2; higher = more nucleation; inactive = no reads after selection;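 also: zero at mode of non-aggregating sequences after 7 days selection at 30°C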
I'd appreciate it if you could label each record using amyloid nucleation score and these ranges: bottom end: < -0.4; midrange: ≥ -0.4 and < 0.5; top end: ≥ 0.5

| substance | classification |
| --- | --- |
| DLVRYFC | top end |
| KSVKIVSSAMKGWIHSTYSR | midrange |
| LSLNFLPYWLPQARCL | top end |
| QWGDYIGAASMW | bottom end |
| VLSVSWYAYCVSMMFIKNWA | top end |
| ESLGEVKGYTSDPMVLVCFE | midrange |
| VGSGGKGSMFYGYIELIFM | bottom end |
| YGLIFNLASFMLRGPRTSFS | bottom end |
| NQLIGHVFSFVDKSKSFSSS | midrange |
| FRGVLWLSYLQDYRFDLYCM | bottom end |
| SKQTRYSSCGIISGLVDPFA | midrange |
| LKMIWIYSFCLILVLYLRQA | midrange |
| SWPVRFQLNATGSPVGRLWT | midrange |
| EEMMFPFAFVFFICSFRNRL | top end |
| FPSCSRGLHFKGLWTWYFPT | midrange |
| KASLDN | midrange |
| SLSKKMFRCRS | top end |
| HLHGCIAMCASSSLIAGCTE | bottom end |
| VDRYLSHCVGKGLDF | bottom end |
| ITKPLVALKNGYMVL | midrange |
| ERYKCVYDNDRLMSLTSPDL | bottom end |
| LQVMMYFWDEFVTKLEKVSG | bottom end |
| CRLGLLF | top end |
| GLICRV | top end |
| DIMVERGAFIGLKAD | top end |
| CTSYTEDFLWCFHNVTWKVR | midrange |

* * *

Test: amyloid nucleation score (Sup35N fusion, yeast selection) (log enrichment); library NNK1; higher = more nucleation; inactive = no reads after selection
Is amyloid nucleation score at least -0.2? Then y. If not, n.

| substance | classification |
| --- | --- |
| PVGWGNTACSLRCTGHVSYV | n |
| NQDMVNMIHETFIVLARVVI | y |
| EFVGVGNIVPFTTSWLIMGR | y |
| IIVIIVLLDLDVSWVDYEVM | y |
| NLSFLK | n |
| RYTRSGLIDMFTNSSTDAHS | y |
| MDPIPREAQVKVLSSHTTIG | y |
| THYNAGSCKMLNQAPFHRIS | n |
| VIIRIIKFTCNSSLIIITKW | y |
| GYKRFYLLVKLYVFERINIA | n |
| GNVGYLGVSRYLHLC | y |
| GSQSEVVCGW | y |
| GVESLLCYASPLVSWAIFAD | n |
| RRSMGRGVLVKGRGSCREYV | y |
| KWDKVALYFDQVQITELCIY | y |
| LFRIPDWPEL | n |
| FDNLWRQYYVIGWILARAFS | n |
| KMTCCSGSINDGYLYCVYNV | y |
| GESHPFNVFRYCL | y |
| STGPNLKVLVSSKS | n |
| LVALPMWIF | y |
| CTRFKGFAWTSMLRL | y |
| TQKHCY | y |
| WQLTGISIWARFMFYVWQGK | n |
| PNLMLAFVL | y |
| AKWPARSPSLQLGNFWFDTT | y |
| YGGLGYSLIGCYADLDGVIL | y |
| FRSSFGMTHYWEWRASSGRN | y |

* * *

Assay: amyloid nucleation score (Sup35N fusion, yeast selection) (log enrichment); library NNK3; higher = more nucleation; inactive = no reads after selection
recordedEndpoint: amyloid nucleation score

| substance | recordedEndpoint | result |
| --- | --- | --- |
| LEVHIFKDPEY | amyloid nucleation score | inactive |
| GWRRPNSYDLEAEFMRKSGG | amyloid nucleation score | inactive |
| VGSGTQSWVRNEMRSMLDLW | amyloid nucleation score | inactive |
| MMCFTLS | amyloid nucleation score | inactive |
| RWLLMYLLLRSTATN | amyloid nucleation score | inactive |
| QWRIRSWHMYDSSLARGLD | amyloid nucleation score | inactive |
| VWCPRDFFVSFVPCQ | amyloid nucleation score | inactive |
| WLEDTSSTDF | amyloid nucleation score | 0.348 |
| NSFSRINKDIISSNSVG | amyloid nucleation score | inactive |
| RIITLNRHIRRVFRMGCRSM | amyloid nucleation score | inactive |
| MWVPTRHKGLYFVNVVFACH | amyloid nucleation score | inactive |
| LGFLNWSRQGGV | amyloid nucleation score | 0.947 |
| CTRITHGGGVTSLRNTSESN | amyloid nucleation score | inactive |
| PLFSYLRHSTGCTFAIPNSE | amyloid nucleation score | inactive |
| CEEPFLNCHFLDY | amyloid nucleation score | inactive |
| WRMDSRYYCYYQFLSLSYQW | amyloid nucleation score | inactive |
| NDFLCI | amyloid nucleation score | inactive |
| GAYVKPNEWCEGFENSSFEV | amyloid nucleation score | inactive |
| CHPLGRCALWWCFVPHGRFA | amyloid nucleation score | inactive |
| LCSFPKH | amyloid nucleation score | inactive |
| KQLLGGPTVSFNVVYSVALK | amyloid nucleation score | 1.98 |
| GRANGFQQIDLCEYHREYLN | amyloid nucleation score | inactive |
| NLSSNVLTAALK | amyloid nucleation score | inactive |
| RSQRKTFHWKFWRPSCSDQW | amyloid nucleation score | 0.868 |
| AVICYS | amyloid nucleation score | inactive |
| GVLYDGVGDNHCCGSRKLVL | amyloid nucleation score | inactive |
| IMNCVLMKDIWYSVFNHR | amyloid nucleation score | 2.44 |
| FFRSCWCFVLLLNDCMITSL | amyloid nucleation score | inactive |
| FNSKTLKLTFFMVVPEYCWW | amyloid nucleation score | inactive |
| IEAEHYCLLLVFLQVGLSSA | amyloid nucleation score | inactive |
| IWMWLKTQSISRLGTGRTTN | amyloid nucleation score | inactive |
| CLGMSFLRRMGTMSAYPTIK | amyloid nucleation score | inactive |
| HTYLFRSMS | amyloid nucleation score | inactive |
| TADRQGYSFEC | amyloid nucleation score | inactive |
| HKYSEGSLNTFRRLRRSRFS | amyloid nucleation score | inactive |
| ATPFGWDHN | amyloid nucleation score | inactive |
| GKLCYYSVYWESALNQPRSS | amyloid nucleation score | inactive |
| PLHRSE | amyloid nucleation score | inactive |
| DVAYFNAFY | amyloid nucleation score | inactive |
| TNDFVNV | amyloid nucleation score | inactive |
| LVFTWYFMCNVMGIFDRGTR | amyloid nucleation score | 2.06 |
| HLYLSSVENLKHLFKGVSVH | amyloid nucleation score | -0.381 |
| PVSICQFIVSMANFDLCSQG | amyloid nucleation score | 1.93 |
| CRYESVYLNVEILPVTVAVV | amyloid nucleation score | inactive |

* * *

Measured amyloid nucleation score, listed per entry.
Experiment: amyloid nucleation score (Sup35N fusion, yeast selection) (log enrichment); library NNK1; higher = more nucleation; inactive = no reads after selection

| sequenceData | amyloid nucleation score |
| --- | --- |
| RASFIELVTEKRHPSHTPGK | -0.473 |
| SLGPFRDVSCYVVAGIQTVN | -1.66 |
| SNEYYPSLHYRVSVGKGLGR | -0.154 |
| AYGLNARIHTATGECLLGYA | -0.143 |
| DVLLPSLTEVAINFSSVTLK | -0.242 |
| MLSVSWFAVAMVYMGMNNTC | 2.04 |
| MTSAGSAWVYSYFYLGLIRK | -0.143 |
| SNLVGEVYCNL | 0.914 |
| VVSDNSMDV | 0.39 |
| PLFLYRFCKMVPVCILRIGW | 0.415 |
| AIRWYGMDDMPTRGYQWSPA | -0.128 |

* * *

Assay: amyloid nucleation score (Sup35N fusion, yeast selection) (log enrichment); library NNK1; higher = more nucleation; inactive = no reads after selection
recordedEndpoint: amyloid nucleation score

| substance | recordedEndpoint | result |
| --- | --- | --- |
| YINLDHCRMSSSTA | amyloid nucleation score | 0.85 |
| SRYSNDLSDIMGDDESRSAH | amyloid nucleation score | 0.136 |
| VVTQLLEFVSITSEGWSQHM | amyloid nucleation score | 2.57 |
| LWWSSSLLASTAQCQGTGFM | amyloid nucleation score | -0.255 |
| CHYVKPVFTICQVPTFIESI | amyloid nucleation score | 1.43 |
| RSLFRECEKIVDRHSMSNFH | amyloid nucleation score | 0.445 |
| YLVFMQEITLTKQLLWQSMR | amyloid nucleation score | -0.224 |
| FESTNVLPISGTSAGSV | amyloid nucleation score | 1.18 |
| VANTCWQMMFLRMLSYFLRV | amyloid nucleation score | 0.687 |
| AFDQGGIYTVPSGKNFPCTL | amyloid nucleation score | -0.186 |
| QAFFVFC | amyloid nucleation score | 1.3 |
| NVRYFLWGNAETIYL | amyloid nucleation score | 0.769 |
